- TARGET_ENTITY: UniProt:Q15910
- Sequence (Q15910 whole entry): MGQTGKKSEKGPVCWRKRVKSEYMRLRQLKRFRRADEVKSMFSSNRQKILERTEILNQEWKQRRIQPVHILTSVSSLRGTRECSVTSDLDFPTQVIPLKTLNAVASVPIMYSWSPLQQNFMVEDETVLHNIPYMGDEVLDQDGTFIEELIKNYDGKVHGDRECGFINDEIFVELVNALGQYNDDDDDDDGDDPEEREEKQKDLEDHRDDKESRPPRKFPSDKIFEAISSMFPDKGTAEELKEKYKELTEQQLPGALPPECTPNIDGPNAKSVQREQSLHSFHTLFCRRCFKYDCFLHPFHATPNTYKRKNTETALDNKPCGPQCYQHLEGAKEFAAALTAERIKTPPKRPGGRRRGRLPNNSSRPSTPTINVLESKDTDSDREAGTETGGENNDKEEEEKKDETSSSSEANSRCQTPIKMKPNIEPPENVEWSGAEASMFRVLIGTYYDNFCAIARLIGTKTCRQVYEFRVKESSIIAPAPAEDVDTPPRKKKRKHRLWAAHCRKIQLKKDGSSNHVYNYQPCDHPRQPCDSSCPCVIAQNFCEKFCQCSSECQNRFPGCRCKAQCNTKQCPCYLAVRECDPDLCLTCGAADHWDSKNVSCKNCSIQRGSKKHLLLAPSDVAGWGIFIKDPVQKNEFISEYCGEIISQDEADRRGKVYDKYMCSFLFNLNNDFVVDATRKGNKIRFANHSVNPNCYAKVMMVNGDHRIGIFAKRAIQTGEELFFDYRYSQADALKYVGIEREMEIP
- Sequence (O75530 whole entry partner): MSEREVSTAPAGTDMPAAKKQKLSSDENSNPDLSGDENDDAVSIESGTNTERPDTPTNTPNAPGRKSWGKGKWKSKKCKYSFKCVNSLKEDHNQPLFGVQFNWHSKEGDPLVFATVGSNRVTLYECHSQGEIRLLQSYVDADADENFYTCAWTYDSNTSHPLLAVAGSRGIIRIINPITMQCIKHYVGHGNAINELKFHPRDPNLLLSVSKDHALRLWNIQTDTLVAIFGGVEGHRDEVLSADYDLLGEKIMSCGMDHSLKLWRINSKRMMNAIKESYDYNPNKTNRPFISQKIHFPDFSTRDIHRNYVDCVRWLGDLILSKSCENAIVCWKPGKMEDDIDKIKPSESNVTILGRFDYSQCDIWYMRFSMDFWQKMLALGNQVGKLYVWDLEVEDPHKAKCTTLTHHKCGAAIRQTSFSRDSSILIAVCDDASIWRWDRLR
- Sequence (Q15022 whole entry partner): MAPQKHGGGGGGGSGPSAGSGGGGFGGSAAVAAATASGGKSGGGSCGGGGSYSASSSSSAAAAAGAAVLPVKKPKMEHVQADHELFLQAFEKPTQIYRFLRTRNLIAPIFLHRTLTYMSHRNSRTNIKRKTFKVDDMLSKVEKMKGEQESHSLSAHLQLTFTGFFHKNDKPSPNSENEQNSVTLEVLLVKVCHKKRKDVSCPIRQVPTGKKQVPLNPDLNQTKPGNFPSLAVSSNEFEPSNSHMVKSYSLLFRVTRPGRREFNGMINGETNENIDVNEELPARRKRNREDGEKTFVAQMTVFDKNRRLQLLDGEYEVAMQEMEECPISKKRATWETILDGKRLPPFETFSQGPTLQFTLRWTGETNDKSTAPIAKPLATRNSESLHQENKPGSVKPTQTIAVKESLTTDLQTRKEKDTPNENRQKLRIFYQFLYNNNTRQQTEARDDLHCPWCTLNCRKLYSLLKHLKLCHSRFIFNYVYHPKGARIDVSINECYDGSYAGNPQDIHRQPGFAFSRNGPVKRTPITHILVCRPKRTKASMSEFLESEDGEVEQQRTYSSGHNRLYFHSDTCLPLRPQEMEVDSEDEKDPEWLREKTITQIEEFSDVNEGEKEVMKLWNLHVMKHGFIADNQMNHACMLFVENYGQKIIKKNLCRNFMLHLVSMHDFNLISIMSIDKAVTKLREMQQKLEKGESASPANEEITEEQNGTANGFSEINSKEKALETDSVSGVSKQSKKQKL
- Sequence (Q09028 whole entry partner): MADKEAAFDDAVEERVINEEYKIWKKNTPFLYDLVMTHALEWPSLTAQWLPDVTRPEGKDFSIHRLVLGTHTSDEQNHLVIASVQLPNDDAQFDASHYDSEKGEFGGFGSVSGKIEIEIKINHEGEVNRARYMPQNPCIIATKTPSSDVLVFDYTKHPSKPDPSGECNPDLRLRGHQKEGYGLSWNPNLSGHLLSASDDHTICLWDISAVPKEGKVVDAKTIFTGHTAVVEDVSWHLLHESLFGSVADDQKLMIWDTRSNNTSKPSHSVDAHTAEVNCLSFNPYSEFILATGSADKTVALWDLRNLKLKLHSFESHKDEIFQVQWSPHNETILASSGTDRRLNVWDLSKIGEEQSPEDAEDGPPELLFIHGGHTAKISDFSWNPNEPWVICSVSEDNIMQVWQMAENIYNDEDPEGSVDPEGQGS
- Sequence (Q6ZN18 whole entry partner): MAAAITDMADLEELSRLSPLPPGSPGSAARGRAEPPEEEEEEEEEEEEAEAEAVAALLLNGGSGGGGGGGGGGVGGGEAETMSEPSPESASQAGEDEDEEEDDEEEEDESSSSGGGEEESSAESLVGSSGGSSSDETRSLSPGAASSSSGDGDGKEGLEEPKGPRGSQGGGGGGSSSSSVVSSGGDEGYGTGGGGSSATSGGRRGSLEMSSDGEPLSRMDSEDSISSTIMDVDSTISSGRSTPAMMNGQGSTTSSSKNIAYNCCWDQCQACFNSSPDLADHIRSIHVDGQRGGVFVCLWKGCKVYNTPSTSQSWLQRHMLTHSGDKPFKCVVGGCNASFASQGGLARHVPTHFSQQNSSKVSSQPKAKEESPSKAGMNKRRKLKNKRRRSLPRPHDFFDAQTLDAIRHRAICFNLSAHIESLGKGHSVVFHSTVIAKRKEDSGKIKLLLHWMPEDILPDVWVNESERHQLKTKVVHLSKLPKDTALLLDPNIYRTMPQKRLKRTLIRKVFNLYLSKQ
- PROTOCOL_NOTES: EZH2 biochemical assay (IC50), 3H-SAM incorporation into biotinylated H3 peptide
- EXPERIMENTAL_SETUP: 30 pM PRC2 containing wt EZH2; 3-5 h pre-incubation; read-out: EZH2 (IC50)
ENDPOINT: IC50

COMPOUND | IC50
CSc1cc(C)[nH]c(=O)c1CNC(=O)c1c(C)n([C@H](C)C2CCC(NC3COC3)CC2)c2ccccc12 (single isomer, unassigned) [2 (isomer 1)] | < 0.5 nM
CSc1cc(C)[nH]c(=O)c1CNC(=O)c1c(C)n([C@H](C)C2CCN(CC(F)(F)F)CC2)c2cccc(C(F)F)c12 [Example 114] | > 5 nM
CSc1cc(C)[nH]c(=O)c1CNC(=O)c1c(C)n([C@H](C)C2CCC(Oc3cnn(C)c3)CC2)c2ncccc12 (single isomer, unassigned) [147 (isomer 2)] | < 0.5 nM
CSc1cc(C)[nH]c(=O)c1CNC(=O)c1c(C)n([C@H](C)c2cnc(C)nc2)c2ccccc12 [Example 35] | > 5 nM
CCCC(=O)OC1CCC([C@@H](C)n2c(C)c(C(=O)NCc3c(SC)cc(C)[nH]c3=O)c3ccccc32)CC1 (single isomer, unassigned) [143 (isomer 2)] | < 0.5 nM
COC1CN(C2CCC([C@@H](C)n3c(C)c(C(=O)NCc4c(SC)cc(C)[nH]c4=O)c4cc(Cl)cnc43)CC2)C1 (single isomer, unassigned) [106 (isomer 1)] | < 0.5 nM
COc1cccc2c1c(C(=O)NCc1c(SC)cc(C)[nH]c1=O)c(C)n2[C@H](C)C1CCN(CC(F)(F)F)CC1 [Example 101] | 0.5 to 5 nM
CSc1cc(C)[nH]c(=O)c1CNC(=O)c1c(C)n([C@H](C)C2CCC(N3CC(OC(F)(F)F)C3)CC2)c2ccccc12 (single isomer, unassigned) [21 (isomer 1)] | < 0.5 nM

Here CCS(=O)(=O)N1CCC([C@@H](C)n2c(C)c(C(=O)NCc3c(SC)cc(C)[nH]c3=O)c3ccccc32)CC1 [Example 146] was tested on UniProt:Q15910, and its IC50 came to < 0.5 nM

# CSc1cc(C)[nH]c(=O)c1CNC(=O)c1c(C)n([C@H](C)[C@H]2OC[C@H](N3CCC34COC4)CO2)c2ccccc12 (single isomer, unassigned; isomer 2) [150 (isomer 2)] with UniProt:Q15910: IC50 is < 0.5 nM

// IC50 (UniProt:Q15910) for CSc1cc(C)[nH]c(=O)c1CNC(=O)c1c(C)n([C@H](C)C2CCC(N3CCC(F)(F)C3)CC2)c2ccccc12 (some centres unmarked) [Example 95] = < 0.5 nM
